Tested on: Klebsiella pneumoniae
experimental protocol: Antibacterial activity against Klebsiella pneumoniae ATCC 10031 assessed as diameter of inhibition zone at 200 ug per disc after 24 hrs by agar disc diffusion method
Type: functional
experimental parameters: ATCC 10031, 24 h, read-out: DIZ
endpoint label: zone of inhibition at 200 µg/disc

Brc1ccc2oc(C3=Nc4ccccc4SC(c4cccc5ccccc45)C3)cc2c1 (stereo unspecified): < 6 mm
CO[C@H]1/C=C/O[C@@]2(C)Oc3c(C)c(O)c4c(O)c(c(/C=N/N5CCN(C)CC5)c(O)c4c3C2=O)NC(=O)/C(C)=C\C=C\[C@H](C)[C@H](O)[C@@H](C)[C@@H](O)[C@@H](C)[C@H](OC(C)=O)[C@@H]1C [RIFAMPIN]: 7 mm
O=[N+]([O-])c1ccc2oc(C3=Nc4ccccc4SC(c4cccc5ccccc45)C3)cc2c1 (stereo unspecified): 11 mm
O=[N+]([O-])c1ccc2oc(C3=Nc4ccccc4SC(c4ccccc4F)C3)cc2c1 (stereo unspecified): < 6 mm
Fc1ccccc1C1CC(c2cc3cc(Br)ccc3o2)=Nc2ccccc2S1 (stereo unspecified): < 6 mm

Now look at this entry.
Query: Give the measured zone of inhibition at 200 µg/disc of O=[N+]([O-])c1cccc(C2CC(c3cc4cc(Br)ccc4o3)=Nc3ccccc3S2)c1 (stereo unspecified) .
Response: < 6 mm
